Entry source: the NIST ThermoML archive (doi:10.1016/j.fluid.2014.11.020)

- PROTOCOL DETAILS: activity coefficient (dimensionless); of the first substance listed, at infinite dilution; xn = mol fraction of the nth substance listed
- RECORDED CONDITIONS: 323.15 K; Liquid; Chromatography; x1 = 0
Decide by activity coefficient: equal to or exceeding 2 means y, less means n.

{"COMPOUND": "CCCCCCCCCC [decane] + CCCOC[n+]1ccc(N(C)C)cc1.O=S(=O)([N-]S(=O)(=O)C(F)(F)F)C(F)(F)F", "QUALITATIVE LABEL": "y"}
{"COMPOUND": "CCCC(C)=O [pentan-2-one] + CN(C)c1cc[n+](COCCCOC[n+]2ccc(N(C)C)cc2)cc1.O=S(=O)([N-]S(=O)(=O)C(F)(F)F)C(F)(F)F.O=S(=O)([N-]S(=O)(=O)C(F)(F)F)C(F)(F)F", "QUALITATIVE LABEL": "n"}
{"COMPOUND": "CCc1ccccc1 [ethylbenzene] + CCCOC[n+]1ccn(Cc2ccccc2)c1.N#C[N-]C#N", "QUALITATIVE LABEL": "y"}
{"COMPOUND": "CC(C)O [propan-2-ol] + CCCOC[n+]1ccn(Cc2ccccc2)c1.F[B-](F)(F)F", "QUALITATIVE LABEL": "y"}
{"COMPOUND": "Cc1cccc(C)c1 [1,3-dimethylbenzene] + Cn1cc[n+](COCCCOC[n+]2ccn(C)c2)c1.O=S(=O)([N-]S(=O)(=O)C(F)(F)F)C(F)(F)F.O=S(=O)([N-]S(=O)(=O)C(F)(F)F)C(F)(F)F", "QUALITATIVE LABEL": "y"}

Could you now look at the following compound, please?
In plain terms: is recorded activity coefficient at least 2 for CCC[N+](=O)[O-] [1-nitropropane] + CCCOC[n+]1ccn(C)c1.O=S(=O)([N-]S(=O)(=O)C(F)(F)F)C(F)(F)F ? n
